This collection of values is drawn from patent US20260217767A1.

TEST_PROTOCOL: Simulated Intestinal Fluid (SIF) Stability Assay
Type: in vitro ADME
TEST_SETTINGS: pig, porcine pancreatin, 37° C.; dimers, Table 7

- MOLECULE_SMILES: "CC(C)C[C@@H]1NC(=O)[C@H]([C@@H](C)O)NC(=O)[C@H](CC(=O)O)NC(=O)[C@H](CO)NC(=O)[C@H](CCCNC(=N)N)N(C)C(=O)CCSCC[C@@H](C(=O)N[C@@H](Cc2c[nH]c3ccccc23)C(=O)N[C@H](CCCCNC(=O)COCC(=O)NCCCC[C@@H](NC(=O)[C@H](Cc2c[nH]c3ccccc23)NC(=O)[C@@H]2CCSCCC(=O)N(C)[C@@H](CCCNC(=N)N)C(=O)N[C@@H](CO)C(=O)N[C@@H](CC(=O)O)C(=O)N[C@@H]([C@@H](C)O)C(=O)N[C@@H](CC(C)C)C(=O)N2)C(N)=O)C(N)=O)NC1=O"
  half-life: "< 20 min"

---

TEST_PROTOCOL: Simulated Intestinal Fluid (SIF) Stability Assay
Type: in vitro ADME
TEST_SETTINGS: simulated gi fluid, porcine pancreatin; control peptide monomers, Table 8
Where a SMILES comes first, the peptide text is derived from it.
Listed below: half-life values for each entry.

- MOLECULE: "CC(=O)N[C@H]1CSSC[C@@H](C(N)=O)NC(=O)[C@H](CC(C)C)NC(=O)[C@H]([C@@H](C)O)NC(=O)[C@H](CC(=O)O)NC(=O)[C@H](CO)NC(=O)[C@H](CCCNC(=N)N)NC1=O [compound 386] (HELM PEPTIDE1{[ac].C.R.S.D.T.L.C.[am]}$PEPTIDE1,PEPTIDE1,2:R3-8:R3$$$V2.0; bridges inferred)"
  half-life: "< 1 min"
- MOLECULE: "CC(=O)N[C@H]1CSSC[C@@H](C(=O)NCC(=O)N[C@@H](CCC(=O)O)C(N)=O)NC(=O)[C@H](CC(C)C)NC(=O)[C@H]([C@@H](C)O)NC(=O)[C@H](CC(=O)O)NC(=O)[C@H](CO)NC(=O)[C@H](CCCNC(=N)N)NC1=O [compound 385] (HELM PEPTIDE1{[ac].C.R.S.D.T.L.C.G.E.[am]}$PEPTIDE1,PEPTIDE1,2:R3-8:R3$$$V2.0; bridges inferred)"
  half-life: "< 1 min"

---

TESTED_SYSTEM: RPMI 8866 cells (Homo sapiens, UniProt P13612+P26010)
Sequence (P13612 34-1032): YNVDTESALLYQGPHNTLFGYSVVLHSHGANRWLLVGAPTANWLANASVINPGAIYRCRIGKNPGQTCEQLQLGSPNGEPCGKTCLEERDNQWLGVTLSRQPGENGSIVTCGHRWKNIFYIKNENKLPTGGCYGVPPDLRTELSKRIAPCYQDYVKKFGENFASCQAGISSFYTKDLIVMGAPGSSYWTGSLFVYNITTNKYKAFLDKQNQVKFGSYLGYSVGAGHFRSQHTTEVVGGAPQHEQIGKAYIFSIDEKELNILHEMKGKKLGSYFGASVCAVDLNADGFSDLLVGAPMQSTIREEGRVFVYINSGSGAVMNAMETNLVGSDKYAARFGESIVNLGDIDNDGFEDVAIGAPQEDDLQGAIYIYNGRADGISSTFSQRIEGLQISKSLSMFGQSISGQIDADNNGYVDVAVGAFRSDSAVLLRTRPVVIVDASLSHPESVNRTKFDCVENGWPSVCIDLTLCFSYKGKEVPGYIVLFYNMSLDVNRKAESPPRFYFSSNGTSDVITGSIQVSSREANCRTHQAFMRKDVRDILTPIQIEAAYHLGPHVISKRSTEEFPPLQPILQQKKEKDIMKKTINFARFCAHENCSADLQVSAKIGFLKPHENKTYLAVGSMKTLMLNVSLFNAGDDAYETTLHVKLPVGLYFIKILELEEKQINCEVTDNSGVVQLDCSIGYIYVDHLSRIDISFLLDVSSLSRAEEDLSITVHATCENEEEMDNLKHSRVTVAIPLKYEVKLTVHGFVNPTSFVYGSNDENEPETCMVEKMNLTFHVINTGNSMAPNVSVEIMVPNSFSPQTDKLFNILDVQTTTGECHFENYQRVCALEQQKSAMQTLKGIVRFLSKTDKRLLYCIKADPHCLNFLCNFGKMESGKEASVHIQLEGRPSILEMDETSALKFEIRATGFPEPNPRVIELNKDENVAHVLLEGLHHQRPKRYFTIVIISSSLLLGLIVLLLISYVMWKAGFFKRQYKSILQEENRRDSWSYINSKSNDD
Sequence (P26010 20-798): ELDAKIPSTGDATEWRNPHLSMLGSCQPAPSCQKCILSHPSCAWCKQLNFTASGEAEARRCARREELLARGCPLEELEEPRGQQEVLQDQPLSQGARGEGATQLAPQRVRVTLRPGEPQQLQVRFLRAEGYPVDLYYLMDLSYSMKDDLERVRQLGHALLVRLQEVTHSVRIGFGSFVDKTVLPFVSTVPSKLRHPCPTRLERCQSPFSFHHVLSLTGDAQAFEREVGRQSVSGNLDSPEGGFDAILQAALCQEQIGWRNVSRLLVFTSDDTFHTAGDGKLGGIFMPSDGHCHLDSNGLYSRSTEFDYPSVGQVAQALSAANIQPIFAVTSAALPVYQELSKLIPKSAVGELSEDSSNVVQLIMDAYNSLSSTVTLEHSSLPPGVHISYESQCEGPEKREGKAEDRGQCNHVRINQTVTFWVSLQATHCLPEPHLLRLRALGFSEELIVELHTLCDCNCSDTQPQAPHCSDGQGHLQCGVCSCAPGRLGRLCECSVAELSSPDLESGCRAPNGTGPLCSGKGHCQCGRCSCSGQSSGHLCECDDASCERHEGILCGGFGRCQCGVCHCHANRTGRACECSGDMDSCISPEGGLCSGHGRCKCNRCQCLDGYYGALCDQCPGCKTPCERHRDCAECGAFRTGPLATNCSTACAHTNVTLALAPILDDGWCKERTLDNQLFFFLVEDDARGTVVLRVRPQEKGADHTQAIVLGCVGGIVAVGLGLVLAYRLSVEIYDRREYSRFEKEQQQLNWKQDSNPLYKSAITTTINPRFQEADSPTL
TEST_PROTOCOL: α4β7-MAdCAM Cell Adhesion Assay
Format: cell-based
TEST_SETTINGS: thioether peptide dimers, Table 7; read-out: Cell-Adhesion A4B7
pIC50: −log10 of the molar value. Where a SMILES comes first, the peptide text is derived from it.

- MOLECULE: "CC(C)C[C@@H]1NC(=O)[C@H]([C@@H](C)O)NC(=O)[C@H](CC(=O)O)NC(=O)[C@H](CO)NC(=O)[C@H](CCCNC(=N)N)N(C)C(=O)c2ccccc2CSC(C)(C)[C@@H](C(=O)N[C@@H](Cc2c[nH]c3ccccc23)C(=O)N[C@H](CCC(=O)O)C(=O)N[C@H](CO)C(=O)N[C@H](CCCCN)C(N)=O)NC1=O [compound 197] (HELM PEPTIDE1{[meR].S.D.T.L.[Pen].W.[dE].[dS].[dK].[am]}|CHEM1{[O=C(c1ccccc1C[*:2])[*:1]]}$PEPTIDE1,CHEM1,1:R1-1:R1|PEPTIDE1,CHEM1,6:R3-1:R2$$$V2.0)"
  TESTED_SYSTEM: "RPMI 8866 cells (Homo sapiens, UniProt P13612+P26010)"
  pIC50: "> 7.60"
- MOLECULE: "CC(C)C[C@@H]1NC(=O)[C@H]([C@@H](C)O)NC(=O)[C@H](CC(=O)O)NC(=O)[C@H](CO)NC(=O)[C@H](CCCNC(=N)N)N(C)C(=O)c2ccccc2CSC(C)(C)[C@@H](C(=O)N[C@@H](Cc2ccc3ccccc3c2)C(=O)N[C@@H](Cc2ccc(-c3ccccc3)cc2)C(=O)N[C@H](CCCCN)C(N)=O)NC1=O"
  TESTED_SYSTEM: "RPMI 8866 cells (Homo sapiens, UniProt P13612+P26010)"
  pIC50: "< 6.00"
- MOLECULE: "CC(C)C[C@@H]1NC(=O)[C@H]([C@@H](C)O)NC(=O)[C@H](CC(=O)O)NC(=O)[C@H](CO)NC(=O)[C@H](CCCNC(=N)N)N(C)C(=O)CSC[C@@H](C(=O)N[C@@H](Cc2c[nH]c3ccccc23)C(=O)N[C@H](CCCCNC(=O)COCC(=O)NCCCC[C@@H](NC(=O)[C@H](Cc2c[nH]c3ccccc23)NC(=O)[C@@H]2CSCC(=O)N(C)[C@@H](CCCNC(=N)N)C(=O)N[C@@H](CO)C(=O)N[C@@H](CC(=O)O)C(=O)N[C@@H]([C@@H](C)O)C(=O)N[C@@H](CC(C)C)C(=O)N2)C(N)=O)C(N)=O)NC1=O"
  TESTED_SYSTEM: "RPMI 8866 cells (Homo sapiens, UniProt P13612+P26010)"
  pIC50: "6.00 to 7.00"
- MOLECULE: "CC(C)C[C@@H]1NC(=O)[C@H]([C@@H](C)O)NC(=O)[C@H](CC(=O)O)NC(=O)[C@H](CO)NC(=O)[C@H](CCCNC(=N)N)N(C)C(=O)c2ccccc2CSC(C)(C)[C@@H](C(=O)N[C@@H](Cc2c[nH]c3ccccc23)C(=O)N[C@H](CCC(=O)O)C(=O)N[C@H](Cc2ccc(O)cc2)C(=O)N[C@H](CCCCN)C(N)=O)NC1=O [compound 201] (HELM PEPTIDE1{[meR].S.D.T.L.[Pen].W.[dE].[dY].[dK].[am]}|CHEM1{[O=C(c1ccccc1C[*:2])[*:1]]}$PEPTIDE1,CHEM1,1:R1-1:R1|PEPTIDE1,CHEM1,6:R3-1:R2$$$V2.0)"
  TESTED_SYSTEM: "RPMI 8866 cells (Homo sapiens, UniProt P13612+P26010)"
  pIC50: "> 7.60"
- MOLECULE: "CC(C)C[C@@H]1NC(=O)[C@H]([C@@H](C)O)NC(=O)[C@H](CC(=O)O)NC(=O)[C@H](CO)NC(=O)[C@H](CCCNC(=N)N)N(C)C(=O)C(C)SC(C)(C)[C@@H](C(=O)N[C@@H](Cc2c[nH]c3ccccc23)C(=O)N[C@H](CCCCN)C(N)=O)NC1=O (single isomer, unassigned)"
  TESTED_SYSTEM: "RPMI 8866 cells (Homo sapiens, UniProt P13612+P26010)"
  pIC50: "< 6.00"
- MOLECULE: "CC(C)C[C@@H]1NC(=O)[C@H]([C@@H](C)O)NC(=O)[C@H](CC(=O)O)NC(=O)[C@H](CO)NC(=O)[C@H](CCCNC(=N)N)N(C)C(=O)c2ccccc2CSC(C)(C)[C@@H](C(=O)N[C@@H](Cc2c[nH]c3ccccc23)C(=O)N[C@H](CCC(=O)O)C(=O)N[C@@H](Cc2ccc(O)cc2)C(=O)N[C@H](CCCCN)C(N)=O)NC1=O [compound 195] (HELM PEPTIDE1{[meR].S.D.T.L.[Pen].W.[dE].Y.[dK].[am]}|CHEM1{[O=C(c1ccccc1C[*:2])[*:1]]}$PEPTIDE1,CHEM1,1:R1-1:R1|PEPTIDE1,CHEM1,6:R3-1:R2$$$V2.0)"
  TESTED_SYSTEM: "RPMI 8866 cells (Homo sapiens, UniProt P13612+P26010)"
  pIC50: "> 7.60"
- MOLECULE: "CC(C)C[C@@H]1NC(=O)[C@H]([C@@H](C)O)NC(=O)[C@H](CC(=O)O)NC(=O)[C@H](CO)NC(=O)[C@H](CCCNC(=N)N)N(C)C(=O)c2ccccc2CSC(C)(C)[C@@H](C(=O)N[C@@H](Cc2c[nH]c3ccccc23)C(=O)N[C@H](CCC(=O)O)C(=O)N[C@H](Cc2c[nH]cn2)C(=O)N[C@H](CCCCN)C(N)=O)NC1=O [compound 199] (HELM PEPTIDE1{[meR].S.D.T.L.[Pen].W.[dE].[dH].[dK].[am]}|CHEM1{[O=C(c1ccccc1C[*:2])[*:1]]}$PEPTIDE1,CHEM1,1:R1-1:R1|PEPTIDE1,CHEM1,6:R3-1:R2$$$V2.0)"
  TESTED_SYSTEM: "RPMI 8866 cells (Homo sapiens, UniProt P13612+P26010)"
  pIC50: "> 7.60"
- MOLECULE: "CC(C)C[C@@H]1NC(=O)[C@H]([C@@H](C)O)NC(=O)[C@H](CC(=O)O)NC(=O)[C@H](CO)NC(=O)[C@H](CCCNC(=N)N)N(C)C(=O)c2ccccc2CSC(C)(C)[C@@H](C(=O)N[C@@H](Cc2c[nH]c3ccccc23)C(=O)N[C@H](CCC(=O)O)C(=O)N[C@@H](CCC(=O)O)C(=O)N[C@H](CCCCN)C(N)=O)NC1=O [compound 194] (HELM PEPTIDE1{[meR].S.D.T.L.[Pen].W.[dE].E.[dK].[am]}|CHEM1{[O=C(c1ccccc1C[*:2])[*:1]]}$PEPTIDE1,CHEM1,1:R1-1:R1|PEPTIDE1,CHEM1,6:R3-1:R2$$$V2.0)"
  TESTED_SYSTEM: "RPMI 8866 cells (Homo sapiens, UniProt P13612+P26010)"
  pIC50: "> 7.60"
- MOLECULE: "CC(C)C[C@@H]1NC(=O)[C@H]([C@@H](C)O)NC(=O)[C@H](CC(=O)O)NC(=O)[C@H](CO)NC(=O)[C@H](CCCNC(=N)N)N(C)C(=O)c2ccccc2CSC(C)(C)[C@@H](C(=O)N[C@@H](Cc2c[nH]c3ccccc23)C(=O)N[C@H](CCC(=O)O)C(=O)N[C@@H](Cc2c[nH]cn2)C(=O)N[C@H](CCCCN)C(N)=O)NC1=O [compound 193] (HELM PEPTIDE1{[meR].S.D.T.L.[Pen].W.[dE].H.[dK].[am]}|CHEM1{[O=C(c1ccccc1C[*:2])[*:1]]}$PEPTIDE1,CHEM1,1:R1-1:R1|PEPTIDE1,CHEM1,6:R3-1:R2$$$V2.0)"
  TESTED_SYSTEM: "RPMI 8866 cells (Homo sapiens, UniProt P13612+P26010)"
  pIC50: "> 7.60"
